# TESTED ON: full-length kinase/Nluc fusion proteins (Homo sapiens)
# PROTOCOL SUMMARY: Apparent affinity (EC50) of energy transfer probes by titration onto live HEK293 cells expressing kinase/Nluc fusions (Table S1)
# CONDITION NOTES: TIE1 (NP_005415), Nluc orientation C; read-out: Probe EC50
QUANTITY KIND: EC50 (nM)
Express the result in nM but write the number alone.

Kindly note the recorded EC50 for CNC(=O)c1ccccc1Nc1nc(Nc2ccc(N3CCN(C(=O)CCOCCOCCOCCOCCNC(=O)CCc4ccc5n4[B-](F)(F)[N+]4=C(c6ccc[nH]6)C=CC4=C5)CC3)cc2)ncc1Cl [Energy Transfer Probe 5] , which is 100

----------
# TESTED ON: full-length kinase/Nluc fusion proteins (Homo sapiens, UniProt Q12852)
# Sequence (Q12852 whole entry, the tested form may be a part): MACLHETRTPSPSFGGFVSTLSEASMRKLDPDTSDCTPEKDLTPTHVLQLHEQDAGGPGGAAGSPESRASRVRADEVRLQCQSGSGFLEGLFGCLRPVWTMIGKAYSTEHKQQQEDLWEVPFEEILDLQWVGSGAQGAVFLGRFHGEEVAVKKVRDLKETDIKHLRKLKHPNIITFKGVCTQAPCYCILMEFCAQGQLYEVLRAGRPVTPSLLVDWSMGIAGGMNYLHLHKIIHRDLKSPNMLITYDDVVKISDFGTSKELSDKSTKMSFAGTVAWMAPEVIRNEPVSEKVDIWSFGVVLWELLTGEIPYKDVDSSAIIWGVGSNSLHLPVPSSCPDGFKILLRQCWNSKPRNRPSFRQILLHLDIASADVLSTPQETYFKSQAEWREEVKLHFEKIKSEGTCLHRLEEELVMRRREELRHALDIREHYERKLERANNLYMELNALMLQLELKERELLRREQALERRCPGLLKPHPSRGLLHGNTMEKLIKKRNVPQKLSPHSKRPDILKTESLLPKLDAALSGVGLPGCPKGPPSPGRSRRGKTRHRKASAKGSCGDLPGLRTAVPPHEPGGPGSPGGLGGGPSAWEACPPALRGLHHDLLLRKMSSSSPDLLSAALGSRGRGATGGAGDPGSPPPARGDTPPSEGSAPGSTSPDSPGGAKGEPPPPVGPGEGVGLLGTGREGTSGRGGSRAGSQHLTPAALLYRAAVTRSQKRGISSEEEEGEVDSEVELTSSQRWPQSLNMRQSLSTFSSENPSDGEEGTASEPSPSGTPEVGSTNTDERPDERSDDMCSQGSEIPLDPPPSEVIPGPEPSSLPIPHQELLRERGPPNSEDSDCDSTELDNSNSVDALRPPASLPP
# PROTOCOL SUMMARY: Apparent affinity (EC50) of energy transfer probes by titration onto live HEK293 cells expressing kinase/Nluc fusions (Table S1)
# CONDITION NOTES: MAP3K12, Nluc N; read-out: Probe EC50
pEC50: −log10 of the molar value.
QUANTITY KIND: pEC50

CNC(=O)c1ccccc1Nc1nc(Nc2ccc(N3CCN(C(=O)CCOCCOCCOCCOCCNC(=O)CCc4ccc5n4[B-](F)(F)[N+]4=C(c6ccc[nH]6)C=CC4=C5)CC3)cc2)ncc1Cl [Energy Transfer Probe 5] on full-length kinase/Nluc fusion proteins (Homo sapiens, UniProt Q12852) gives pEC50 = < 6.00

----------
# TESTED ON: full-length kinase/Nluc fusion proteins (Homo sapiens)
# PROTOCOL SUMMARY: Apparent affinity (EC50) of energy transfer probes by titration onto live HEK293 cells expressing kinase/Nluc fusions (Table S1)
# CONDITION NOTES: EPHB2, Nluc C; read-out: Probe EC50
QUANTITY KIND: EC50 (nM)
Express the result in nM but write the number alone.

Kindly note the recorded EC50 for Cc1nc(Nc2ncc(C(=O)Nc3c(C)cccc3Cl)s2)cc(N2CCN(CCOCCNC(=O)CCc3ccc4n3[B-](F)(F)[N+]3=C(c5ccc[nH]5)C=CC3=C4)CC2)n1 [Energy Transfer Probe 6] , which is 20

----------
# TESTED ON: full-length kinase/Nluc fusion proteins (Homo sapiens)
# PROTOCOL SUMMARY: Apparent affinity (EC50) of energy transfer probes by titration onto live HEK293 cells expressing kinase/Nluc fusions (Table S1)
# CONDITION NOTES: DDR1, Nluc C; read-out: Probe EC50
QUANTITY KIND: EC50 (nM)
Express the result in nM but write the number alone.

Kindly note the recorded EC50 for Cc1nc(Nc2ncc(C(=O)Nc3c(C)cccc3Cl)s2)cc(N2CCN(CCOCCNC(=O)CCc3ccc4n3[B-](F)(F)[N+]3=C(c5ccc[nH]5)C=CC3=C4)CC2)n1 [Energy Transfer Probe 6] , which is 40

----------
# TESTED ON: full-length kinase/Nluc fusion proteins (Homo sapiens, UniProt P33981)
# Sequence (P33981 1-857): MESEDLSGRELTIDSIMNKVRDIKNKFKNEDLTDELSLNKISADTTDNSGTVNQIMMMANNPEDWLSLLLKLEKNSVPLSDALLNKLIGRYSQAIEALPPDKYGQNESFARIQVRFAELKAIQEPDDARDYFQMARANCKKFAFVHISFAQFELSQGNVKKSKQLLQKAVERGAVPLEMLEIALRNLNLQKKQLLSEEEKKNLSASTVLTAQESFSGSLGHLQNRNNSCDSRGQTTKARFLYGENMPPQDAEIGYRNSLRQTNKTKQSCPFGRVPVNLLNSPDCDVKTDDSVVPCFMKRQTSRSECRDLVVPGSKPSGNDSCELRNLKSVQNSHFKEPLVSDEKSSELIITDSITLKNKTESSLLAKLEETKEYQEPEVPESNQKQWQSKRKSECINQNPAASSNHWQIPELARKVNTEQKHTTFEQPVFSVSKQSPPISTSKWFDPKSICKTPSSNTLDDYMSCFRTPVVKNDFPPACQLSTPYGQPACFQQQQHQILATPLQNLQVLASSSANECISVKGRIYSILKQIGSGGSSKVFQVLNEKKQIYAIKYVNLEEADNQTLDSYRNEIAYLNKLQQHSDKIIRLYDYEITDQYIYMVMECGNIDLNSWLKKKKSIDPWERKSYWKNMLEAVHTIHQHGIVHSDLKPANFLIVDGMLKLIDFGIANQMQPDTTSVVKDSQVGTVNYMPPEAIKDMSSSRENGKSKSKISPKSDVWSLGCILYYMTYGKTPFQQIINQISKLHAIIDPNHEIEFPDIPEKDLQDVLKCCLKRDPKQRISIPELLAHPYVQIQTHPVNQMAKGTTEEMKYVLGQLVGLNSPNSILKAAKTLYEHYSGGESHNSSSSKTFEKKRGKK
# PROTOCOL SUMMARY: Apparent affinity (EC50) of energy transfer probes by titration onto live HEK293 cells expressing kinase/Nluc fusions (Table S1)
# CONDITION NOTES: TTK (NP_003309), Nluc orientation C; read-out: Probe EC50
QUANTITY KIND: pEC50
Remember the convention: pEC50 equals -log10 of concentration in molar.

Kindly note the recorded pEC50 for CNC(=O)c1ccccc1Nc1nc(Nc2ccc(N3CCN(C(=O)CCOCCOCCOCCOCCNC(=O)CCc4ccc5n4[B-](F)(F)[N+]4=C(c6ccc[nH]6)C=CC4=C5)CC3)cc2)ncc1Cl [Energy Transfer Probe 5] , which is 6.52

----------
# TESTED ON: full-length kinase/Nluc fusion proteins (Homo sapiens)
# Sequence (O14976 1-1311): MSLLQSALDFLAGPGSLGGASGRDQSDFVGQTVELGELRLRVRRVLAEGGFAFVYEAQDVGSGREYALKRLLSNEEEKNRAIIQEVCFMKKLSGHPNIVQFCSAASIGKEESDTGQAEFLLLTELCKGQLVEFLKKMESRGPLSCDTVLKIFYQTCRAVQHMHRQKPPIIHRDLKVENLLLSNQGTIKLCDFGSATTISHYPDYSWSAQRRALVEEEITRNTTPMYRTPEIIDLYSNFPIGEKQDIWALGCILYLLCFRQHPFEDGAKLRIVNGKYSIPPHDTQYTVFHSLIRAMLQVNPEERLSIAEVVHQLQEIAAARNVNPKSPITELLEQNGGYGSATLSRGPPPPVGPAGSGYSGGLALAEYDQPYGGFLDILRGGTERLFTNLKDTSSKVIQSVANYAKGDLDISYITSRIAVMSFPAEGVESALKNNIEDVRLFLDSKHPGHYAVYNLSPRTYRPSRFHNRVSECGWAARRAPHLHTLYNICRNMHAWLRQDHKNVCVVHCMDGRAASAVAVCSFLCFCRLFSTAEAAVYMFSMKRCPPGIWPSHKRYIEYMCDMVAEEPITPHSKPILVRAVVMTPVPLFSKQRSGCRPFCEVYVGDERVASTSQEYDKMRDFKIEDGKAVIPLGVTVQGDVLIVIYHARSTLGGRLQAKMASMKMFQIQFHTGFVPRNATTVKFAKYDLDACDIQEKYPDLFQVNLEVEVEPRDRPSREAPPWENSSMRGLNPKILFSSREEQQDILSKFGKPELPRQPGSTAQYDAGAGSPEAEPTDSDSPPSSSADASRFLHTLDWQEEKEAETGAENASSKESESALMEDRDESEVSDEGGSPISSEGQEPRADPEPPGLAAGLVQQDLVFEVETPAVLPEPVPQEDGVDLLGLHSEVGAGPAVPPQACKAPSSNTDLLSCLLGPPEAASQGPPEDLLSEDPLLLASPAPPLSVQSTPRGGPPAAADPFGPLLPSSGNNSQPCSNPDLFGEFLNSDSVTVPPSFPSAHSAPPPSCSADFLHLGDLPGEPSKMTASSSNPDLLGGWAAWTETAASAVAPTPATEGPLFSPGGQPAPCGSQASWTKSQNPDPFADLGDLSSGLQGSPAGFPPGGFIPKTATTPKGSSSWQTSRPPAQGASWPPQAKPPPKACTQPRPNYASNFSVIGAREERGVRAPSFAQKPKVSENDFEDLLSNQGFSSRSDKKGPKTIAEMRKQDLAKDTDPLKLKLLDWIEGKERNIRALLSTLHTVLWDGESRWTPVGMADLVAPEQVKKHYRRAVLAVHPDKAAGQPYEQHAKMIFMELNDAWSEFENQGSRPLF
# PROTOCOL SUMMARY: Apparent affinity (EC50) of energy transfer probes by titration onto live HEK293 cells expressing kinase/Nluc fusions (Table S1)
# CONDITION NOTES: GAK, Nluc N; read-out: Probe EC50
QUANTITY KIND: EC50 (nM)
Express the result in nM but write the number alone.

Kindly note the recorded EC50 for Cc1nc(Nc2ncc(C(=O)Nc3c(C)cccc3Cl)s2)cc(N2CCN(CCOCCNC(=O)CCc3ccc4n3[B-](F)(F)[N+]3=C(c5ccc[nH]5)C=CC3=C4)CC2)n1 [Energy Transfer Probe 6] , which is 500

----------
# TESTED ON: full-length kinase/Nluc fusion proteins (Homo sapiens, UniProt P29317)
# Sequence (P29317 24-976): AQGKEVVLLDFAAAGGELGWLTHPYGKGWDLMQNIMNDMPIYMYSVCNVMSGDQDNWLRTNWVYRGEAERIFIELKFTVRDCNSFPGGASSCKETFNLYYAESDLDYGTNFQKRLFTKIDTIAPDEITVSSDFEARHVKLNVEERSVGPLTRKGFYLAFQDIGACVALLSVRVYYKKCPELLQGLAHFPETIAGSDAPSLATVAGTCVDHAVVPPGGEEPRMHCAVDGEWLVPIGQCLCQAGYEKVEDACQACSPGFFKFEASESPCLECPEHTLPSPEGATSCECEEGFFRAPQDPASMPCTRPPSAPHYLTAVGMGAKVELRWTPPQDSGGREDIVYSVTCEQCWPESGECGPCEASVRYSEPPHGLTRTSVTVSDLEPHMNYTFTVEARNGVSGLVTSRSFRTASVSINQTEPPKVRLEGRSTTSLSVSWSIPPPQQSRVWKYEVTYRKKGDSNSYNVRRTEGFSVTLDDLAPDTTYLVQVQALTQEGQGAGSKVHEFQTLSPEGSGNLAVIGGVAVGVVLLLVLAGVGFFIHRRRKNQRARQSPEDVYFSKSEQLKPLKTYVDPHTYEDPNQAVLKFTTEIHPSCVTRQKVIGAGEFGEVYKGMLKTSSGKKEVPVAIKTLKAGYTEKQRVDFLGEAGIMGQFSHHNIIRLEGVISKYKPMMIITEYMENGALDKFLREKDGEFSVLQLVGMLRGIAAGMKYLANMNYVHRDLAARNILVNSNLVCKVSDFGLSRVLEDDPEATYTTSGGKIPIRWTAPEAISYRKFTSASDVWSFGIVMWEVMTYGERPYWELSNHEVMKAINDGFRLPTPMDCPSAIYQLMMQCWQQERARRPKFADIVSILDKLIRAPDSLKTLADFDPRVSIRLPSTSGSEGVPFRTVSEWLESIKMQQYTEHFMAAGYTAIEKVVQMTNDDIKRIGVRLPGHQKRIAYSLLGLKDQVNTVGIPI
# PROTOCOL SUMMARY: Apparent affinity (EC50) of energy transfer probes by titration onto live HEK293 cells expressing kinase/Nluc fusions (Table S1)
# CONDITION NOTES: EPHA2, Nluc C; read-out: Probe EC50
QUANTITY KIND: pEC50
Remember the convention: pEC50 equals -log10 of concentration in molar.

Kindly note the recorded pEC50 for Cc1nc(Nc2ncc(C(=O)Nc3c(C)cccc3Cl)s2)cc(N2CCN(CCOCCNC(=O)CCc3ccc4n3[B-](F)(F)[N+]3=C(c5ccc[nH]5)C=CC3=C4)CC2)n1 [Energy Transfer Probe 6] , which is 7.22
